molecular target: T1, Kr (human, UniProt Q01973); experiment: ELISA on directly coated hFc fusion proteins of hROR1 domains; anti-His-HRP; A405
T1 construct: Kringle domain of the extracellular domain; also called hFc-hROR1-Kr
T1 sequence (Q01973 312-391 limits assumed): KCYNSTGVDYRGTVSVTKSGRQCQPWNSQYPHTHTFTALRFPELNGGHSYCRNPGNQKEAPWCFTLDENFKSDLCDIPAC
Parameter: binding result

>  <Binder>
ERR1-324 chimeric rabbit/human Fab (Fab, V domains shown, Chimeric rabbit/human Fab with His tag, expressed in E. coli (pET11a); kappa light chain) VH: QSLEESGGGLVQPGESLTLTCTVSGFSLSRNGMTWVRQAPGKGLEWIGIITSSGDKYYATWAKGRFTISKTSSTTVDLKMTSLTTEDTATYFCARGTVSSDIWGPGTLVTISS VL: ELVLTQTPSPVSAAVGGTVTINCQASQSVYGNNELAWYQQKPGQPPKLLIYRASILTSGVPSRFKGSGSGTQFTLTISNVQREDAATYYCLGGYVSQSYRAAFGGGTELEIL

>  <Recorded Result>
no binding

$$$$
>  <Binder>
ERR1-TOP54 chimeric rabbit/human Fab (Fab, V domains shown, Chimeric rabbit/human Fab with His tag, expressed in E. coli (pET11a); lambda light chain) VH: QSLEESGGRLVTPGTPLTLTCTASGFSLSDYYMSWVRQAPGEGLEWIGTIYGGSGNTWYATWAKGRFTISKTSTTVDLKITSPTTEDTATYFCARDFGLSTGGLWGPGTLVTISS VL: SYELTQLPSVSVSLGQTARITCGGNSIGSKAVNWYQQKPGLAPGLLIYDDDERPSGVPDRFSGSNSGDTATLTISGAQAGDEADYYCQLWDSSARAFVFGGGTQLTVTG

>  <Recorded Result>
no binding

$$$$
